Origin of measurements: patent US8664257B2

Target: Recombinant human cathepsin A (Homo sapiens)
Construct: Recombinant human cathepsin A (residues 29-480, with a C-terminal 10-His tag); 10-His (C); purchased R&D Systems 1049-SE
Sequence (P10619 29-312 limits assumed): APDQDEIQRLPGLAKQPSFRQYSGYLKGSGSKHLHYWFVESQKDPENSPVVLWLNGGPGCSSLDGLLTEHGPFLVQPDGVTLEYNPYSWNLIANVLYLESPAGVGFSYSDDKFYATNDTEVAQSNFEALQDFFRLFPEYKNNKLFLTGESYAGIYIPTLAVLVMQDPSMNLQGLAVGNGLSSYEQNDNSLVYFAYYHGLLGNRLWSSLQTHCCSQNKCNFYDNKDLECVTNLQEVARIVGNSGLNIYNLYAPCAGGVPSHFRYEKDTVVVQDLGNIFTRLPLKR
Sequence (P10619 327-480 limits assumed): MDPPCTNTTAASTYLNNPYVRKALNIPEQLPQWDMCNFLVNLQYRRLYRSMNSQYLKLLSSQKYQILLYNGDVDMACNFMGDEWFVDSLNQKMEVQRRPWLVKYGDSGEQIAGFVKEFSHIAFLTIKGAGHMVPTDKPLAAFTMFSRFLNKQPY
Experiment: Cathepsin A inhibitory activity
Assay type: biochemical
Details: read-out: Activity (2): Cathepsin A inhibitory activity (IC50 class)
pIC50: −log10 of the molar value.
OBSERVATION_TYPE: pIC50

The examples below pair each entry with its known result.
>>> test_result("O=C(O)C[C@H](NC(=O)c1cc(OCC2CC2)n(-c2ccccc2F)n1)c1ccccc1Cl [Example 696]")
"> 7.00"
>>> test_result("COc1cc(C(=O)N[C@@H](CC(=O)O)c2ccc(Cl)cc2)nn1-c1ccccc1F [Example 671]")
"> 7.00"
>>> test_result("Cc1ccccc1[C@H](CC(=O)O)NC(=O)c1cc(OCC2CCCCC2)n(-c2ccccc2F)n1 [Example 638]")
"> 7.00"
>>> test_result("CCOc1cc(C(=O)N[C@@H](CC(=O)O)c2ccccc2Cl)nn1-c1ccccc1F [Example 717]")
"> 7.00"

Report pIC50 for each item below.
1. O=C(O)CC(NC(=O)c1cc(O)n(-c2ccccc2)n1)c1ccc(-c2ccccc2F)cc1 (stereo not shown) [Example 583]
2. O=C(O)CC(NC(=O)c1cc(O)n(-c2ccccc2Cl)n1)c1ccc(-c2cccc(Cl)c2)cc1 (stereo not shown) [Example 540]
3. COCCOc1cc(C(=O)N[C@@H](CC(=O)O)c2ccccc2C)nn1-c1ccccc1F [Example 617]
4. CCOc1cc(C(=O)N[C@@H](CC(=O)O)c2ccccc2C)nn1-c1ccccc1 [Example 621]
5. Cc1ccccc1[C@H](CC(=O)O)NC(=O)c1cc(OCC2CC2)n(-c2ccccc2F)n1 [Example 612]
6. CC(C)(C)[C@@H](O)COc1cc(C(=O)N[C@@H](CC(=O)O)c2ccc(Cl)cc2Cl)nn1-c1ccccc1F [Example 753]
7. COc1ccc(F)c(C(CC(=O)O)NC(=O)c2cc(O)n(-c3ccccc3F)n2)c1 (stereo not shown) [Example 553]
8. CCOc1cc(C(=O)N[C@@H](CC(=O)O)c2cccc(C)c2)nn1-c1ccccc1F [Example 712]

1: 4.52 to 6.00; 2: 6.00 to 7.00; 3: > 7.00; 4: > 7.00; 5: > 7.00; 6: > 7.00; 7: 6.00 to 7.00; 8: > 7.00

Report pIC50 for each item below.
1. O=C(O)CC(NC(=O)c1cc(OCC2CC2)n(-c2ccccc2F)n1)c1cc(Cl)ccc1Cl (stereo not shown) [Example 704]
2. COc1cc(C(=O)N[C@@H](CC(=O)O)c2ccccc2F)nn1-c1ccccc1F [Example 679]
3. CCC(O)COc1cc(C(=O)N[C@@H](CC(=O)O)c2ccccc2C)nn1-c1ccccc1F (stereo partly shown) [Example 755]

> 7.00
6.00 to 7.00
> 7.00

Dear colleague, I am looking for the recorded pIC50 of the following compound: Cc1ccc(C(CC(=O)O)NC(=O)c2cc(OCC3CC3)n(-c3ccccc3F)n2)c(C)c1 (stereo not shown) [Example 686]
> 7.00

====

Biological target: Recombinant human cathepsin A (Homo sapiens, UniProt P10619)
Construct: Recombinant human cathepsin A (residues 29-480, with a C-terminal 10-His tag); 10-His (C); purchased R&D Systems 1049-SE
Assay: Cathepsin A inhibitory activity
Assay type: biochemical
Details: recombinant human cathepsin A; read-out: Activity (2): Cathepsin A inhibitory activity, IC50 class
Source text: a) Cathepsin A Inhibitory Activity Recombinant human cathepsin A (residues 29-480, with a C-terminal 10-His tag; R&D Systems, #1049-SE) was proteolytically activated with recombinant human cathepsin L (R&D Systems, #952-CY). […] Uncleaved substrate and product were then separated by a microfluidic capillary electrophoresis on a LabChip® 3000 Drug Discovery System (12-Sipper-Chip; Caliper Life Sciences) and quantified by determination of the respective peak areas. […]
pIC50: −log10 of the molar value.
Exercise: for every item that follows, state its recorded pIC50.

The examples below pair each entry with its known result.
>>> test_result("COc1cc(C(=O)N[C@@H](CC(=O)NC(C)C)c2ccccc2C)nn1-c1ccccc1F")
"6.00 to 7.00"
>>> test_result("O=C(O)CC(NC(=O)c1cc(O)n(-c2ccccc2F)n1)c1ccccc1 (stereo not shown)")
"6.00 to 7.00"
>>> test_result("COc1ccc(-c2ccc(C(CC(=O)O)NC(=O)c3cc(O)n(-c4ccccc4F)n3)cc2)cn1 (stereo not shown)")
"6.00 to 7.00"
>>> test_result("O=C(O)CC(NC(=O)c1cc(O)n(-c2ccc(Cl)cc2)n1)c1ccc(-c2ccc(F)cc2)cc1 (stereo not shown)")
"4.52 to 6.00"
>>> test_result("CN(C)c1ccc(C(CC(=O)O)NC(=O)c2cc(O)n(-c3ccc(F)cc3F)n2)c(Cl)c1 (stereo not shown)")
"6.00 to 7.00"

Report pIC50 for each item below.
1. O=C(O)CC(NC(=O)c1cc(O)n(-c2cccc(F)c2)n1)c1ccc(-c2ccccn2)cc1 (stereo not shown)
2. CN(C)c1ccc(C(CC(=O)O)NC(=O)c2cc(O)n(-c3ccc(F)cc3)n2)c(Cl)c1 (stereo not shown)
3. O=C(O)CC(NC(=O)c1cc(O)n(-c2cccc(Cl)c2)n1)c1cc(F)ccc1C(F)(F)F (stereo not shown)
4. COc1cccc([C@H](CC(=O)O)NC(=O)c2cc(O)n(-c3cccc(Cl)c3)n2)c1OC
5. CC[C@@H](C)NC(=O)C[C@H](NC(=O)c1cc(OC)n(-c2ccccc2F)n1)c1ccccc1C
6. COc1ccc(F)cc1C(CC(=O)O)NC(=O)c1cc(O)n(-c2cccc(F)c2)n1 (stereo not shown)

6.00 to 7.00
4.52 to 6.00
6.00 to 7.00
6.00 to 7.00
4.52 to 6.00
6.00 to 7.00

Report pIC50 for each item below.
1. COc1cc(C(=O)N[C@@H](CC(=O)NCc2ccno2)c2ccccc2C)nn1-c1ccccc1F
2. O=C(O)CC(NC(=O)c1cc(O)n(-c2ccccc2)n1)c1cc(F)ccc1C(F)(F)F (stereo not shown)
3. Cc1ccc(C)c(C(CC(=O)O)NC(=O)c2cc(O)n(-c3ccccc3F)n2)c1 (stereo not shown)
4. O=C(O)CC(NC(=O)c1cc(O)n(-c2cccc(Cl)c2)n1)c1ccccc1SC(F)(F)F (stereo not shown)
5. O=C(O)CC(NC(=O)c1cc(O)n(-c2cccc(F)c2)n1)c1cc(F)ccc1C(F)(F)F (stereo not shown)

["> 7.00", "6.00 to 7.00", "6.00 to 7.00", "4.52 to 6.00", "6.00 to 7.00"]

====

Biological target: Recombinant human cathepsin A (Homo sapiens, UniProt P10619)
Construct: Recombinant human cathepsin A (residues 29-480, with a C-terminal 10-His tag); 10-His (C); purchased R&D Systems 1049-SE
Experiment: Cathepsin A inhibitory activity
Type: biochemical
Details: recombinant human cathepsin A 833 ng/ml, Bodipy FL-labeled bradykinin 2 μM, pH 5.5; read-out: CATH-A IC50
pIC50: −log10 of the molar value.
Categories are defined by ranges of pIC50, namely one (below 6), two (6 to below 7), three (7 or more)

Study these solved cases before continuing.
>>> class_label("Cc1ccc(F)cc1C(CC(=O)O)NC(=O)c1cc(O)n(-c2cccc(Cl)c2)n1 (stereo not drawn) [Example 510]")
"two"
>>> class_label("Cc1ccccc1[C@H](CC(=O)O)NC(=O)c1cc(OC[C@](C)(O)C(C)(C)C)n(-c2ccccc2F)n1 (single isomer, unassigned) [Example 747]")
"three"
>>> class_label("Cc1ccc([C@H](CC(=O)O)NC(=O)c2cc(O)n(-c3ccccc3Cl)n2)cc1 [Example 135]")
"two"
>>> class_label("CC(C)[C@](C)(O)COc1cc(C(=O)NC(CC(=O)O)C2CCCCC2)nn1-c1ccccc1F (stereo partly drawn) [Example 803]")
"three"

Determine which band this molecule sits in: Cc1ccccc1[C@H](CC(=O)O)NC(=O)c1cc(OC[C@H](O)C(C)(C)C)n(-c2ccccc2F)n1 (single isomer, unassigned) [Example 745]
three

Determine which band this molecule sits in: O=C(O)CC(NC(=O)c1cc(O)n(-c2ccccc2Cl)n1)c1cc(F)ccc1Cl (stereo not drawn) [Example 458]
two

Determine which band this molecule sits in: Cc1ccc([C@H](CC(=O)O)NC(=O)c2cc(O)n(-c3ccc(F)cc3)n2)cc1 [Example 526]
two

Determine which band this molecule sits in: O=C(O)CC(NC(=O)c1cc(O)n(-c2ccccc2Cl)n1)c1ccc(N2CCOCC2)cc1 (stereo not drawn) [Example 505]
one

Determine which band this molecule sits in: O=C(O)CC(NC(=O)c1cc(O)n(-c2cccc(Cl)c2)n1)c1ccccc1SC(F)(F)F (stereo not drawn) [Example 467]
one
